- assay: chemical genetic growth profiling, strain panel (AID 1159580);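 further: tested at 20 µM; growth read once vehicle control cultures reached saturation at 30 °C; 1 = growth at the plate median or of vehicle wells; lower values mean less growth of the strain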
- details: S. cerevisiae deletion strains, growth OD, locus YGL167C, strain pmr1, active compounds read low
Among all 5,500 compounds or so, about 2,000 (36%) were called active. Inconclusive results (about 18%) are left out. Some of the results follow.
property: normalized growth
Output: the number by itself.

Field: example entries. Status: answers known.
molecule	normalized growth
c1ccc2c(c1)sc1ccccc12	0.937
CCCc1cc(C(N)=S)ccn1	0.939
Clc1ccc(C(c2ccc(Cl)cc2)C(Cl)(Cl)Cl)cc1	1.01
COc1ccc(C(CN(C)C)C2(O)CCCCC2)cc1 (centres undefined)	0.979
O=C(c1ccc(OCCN2CCCCC2)cc1)c1c(-c2ccc(O)cc2)sc2cc(O)ccc12	1.03

Ask: Which normalized growth reading was recorded for the molecule COc1ccc(CN(CCN(C)C)c2ccccn2)cc1 ?
Result: 1.02

Ask: Which normalized growth reading was recorded for the molecule CN(C)CCN(Cc1ccccc1)c1ccccn1 ?
Result: 1.01

Ask: Which normalized growth reading was recorded for the molecule CCC(C)C(=O)O[C@@H]1C[C@@]2(C)[C@H](c3ccoc3)OC(=O)CC23OC2(C)OC34[C@H](OC(=O)C(C)C)[C@@]3(O)[C@@H](OC(=O)C5(C)OC5C)[C@@]5(C)C[C@]3(O)[C@@](C)([C@H]5CC(=O)OC)C14O2 (some centres undefined) ?
Result: 0.993

Ask: Which normalized growth reading was recorded for the molecule COc1ccc2c(c1)OC/C(=C\c1ccc(OC)c(O)c1)C2=O ?
Result: 0.947

Ask: Which normalized growth reading was recorded for the molecule Oc1cc(O)c2c(c1)O[C@H](c1ccc(O)c(O)c1)[C@@H](O)C2 ?
Result: 1.01

Ask: Which normalized growth reading was recorded for the molecule CC[C@]1(O)CC2CN(CCc3c([nH]c4ccccc34)[C@@](C(=O)OC)(c3cc4c(cc3OC)N(C)[C@H]3[C@@](O)(C(=O)OC)[C@H](OC(C)=O)[C@]5(CC)C=CCN6CC[C@]43[C@@H]65)C2)C1 (some centres undefined) ?
Result: 0.972

Ask: Which normalized growth reading was recorded for the molecule COc1ccc2c(c1)OC/C(=C/c1ccc(OC)c(OC)c1)C2=O ?
Result: 1.06

Ask: Which normalized growth reading was recorded for the molecule Oc1cc(O)c2c(c1)O[C@H](c1ccc(O)c(O)c1)[C@H](O)C2 ?
Result: 1.01

Ask: Which normalized growth reading was recorded for the molecule Nc1ncn[nH]1 ?
Result: 1.02

Ask: Which normalized growth reading was recorded for the molecule COc1ccc(C(=O)O)cc1OC ?
Result: 0.999

Ask: Which normalized growth reading was recorded for the molecule COc1ccc2c(c1)OC1(O)COc3cc(OC)c(OC)cc3C1=C2 (centres undefined) ?
Result: 0.985

Ask: Which normalized growth reading was recorded for the molecule CCCCCCCCC(=O)NCc1ccc(O)c(OC)c1 ?
Result: 1

Ask: Which normalized growth reading was recorded for the molecule CCC(C)C(=O)O[C@@H]1C[C@@]2(C)[C@H](c3ccoc3)OC(=O)CC23OC2(C)O[C@]14[C@]1(C)[C@@H](CC(=O)OC)C5(C)CC1(O)[C@](O)(C5OC(=O)C1(C)OC1C)[C@@H](OC(C)=O)[C@]34O2 (some centres undefined) ?
Result: 0.995

Ask: Which normalized growth reading was recorded for the molecule CN(C)CCN(Cc1cccs1)c1ccccn1 ?
Result: 1.01
